All figures here come from PubChem BioAssay AID1508607.

The reader will find reported activation values listed item by item below.
- target system: Glucose-dependent insulinotropic receptor (Homo sapiens) (UniProt Q8TDV5)
- Sequence (Q8TDV5 whole entry, looked up): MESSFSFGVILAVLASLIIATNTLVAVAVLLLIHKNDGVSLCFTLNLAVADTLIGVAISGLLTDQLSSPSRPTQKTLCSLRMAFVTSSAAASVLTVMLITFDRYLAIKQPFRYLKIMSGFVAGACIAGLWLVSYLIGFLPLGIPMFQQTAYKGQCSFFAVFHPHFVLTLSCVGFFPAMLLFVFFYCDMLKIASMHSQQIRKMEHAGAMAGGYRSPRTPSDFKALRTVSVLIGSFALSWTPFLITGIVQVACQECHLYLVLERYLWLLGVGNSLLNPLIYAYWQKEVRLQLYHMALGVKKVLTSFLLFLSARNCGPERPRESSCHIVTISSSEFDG
- protocol text: off-target GPR119 activation – cell-based, PathHunter beta-arrestin, luminescence, set 2, counter-screen for GPR151 activator project, confirmation (AID 1508607);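 also: 0% = median of sample wells and 100% = wells given EA reagent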
- test conditions: GPR119 PathHunter beta-arrestin cells, 90 min, at 11.2 µM, hits give high values
Among all 2,300 compounds or so, about 20 (0.9%) were called active. The entries come from a sample that favours actives as a whole.
I only need the number, in %, no unit after it.

{"molecule": "Cc1ccc(-n2nc3c(c2NC(=O)C2(c4ccc(Cl)cc4)CCCC2)CSC3)cc1", "unit abbrev": "%", "activation": 3.08}

Which measured activation belongs to O=C(O)c1cc([N+](=O)[O-])ccc1C(=O)Nc1cccc2ccccc12 , tested on Glucose-dependent insulinotropic receptor (Homo sapiens) (UniProt Q8TDV5)?
-0.79

Form: Entry = O=C(Nc1cc(C(F)(F)F)ccc1Cl)c1ccc(C(=O)C(=O)c2ccccc2)cc1 | System = Glucose-dependent insulinotropic receptor (Homo sapiens) (UniProt Q8TDV5) | activation = ____
6.45

Please state recorded activation (tested on Glucose-dependent insulinotropic receptor (Homo sapiens) (UniProt Q8TDV5)) of CC(C)C1Nc2c(O)cc(Cl)c([N+](=O)[O-])c2C2C=CCC21 (stereo not given)
10.3

Recall the recorded activation for COc1ccc(-c2cc(-c3ccccc3)c(C#N)c(SC3CCCCC3O)n2)cc1 (stereo not given) with Glucose-dependent insulinotropic receptor (Homo sapiens) (UniProt Q8TDV5) and state it.
4.49

Form: Entry = CCc1ccc(NC(=O)Cn2nnc(C(=O)OC)c2C(=O)OC)cc1 | System = Glucose-dependent insulinotropic receptor (Homo sapiens) (UniProt Q8TDV5) | activation = ____
-0.08

* * *

- target system: Glucose-dependent insulinotropic receptor (Homo sapiens)
- protocol text: off-target GPR119 activation – cell-based, PathHunter beta-arrestin, luminescence, set 2, counter-screen for GPR151 activator project, confirmation (AID 1508607);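 also: 0% = median of sample wells and 100% = wells given EA reagent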
- test conditions: GPR119 PathHunter beta-arrestin cells, 90 min, at 11.2 µM, hits give high values
The whole screen tested about 2,300 compounds, of which about 20 (0.9%) were called active. The list comes from a sample in which actives are over-represented; it also holds close analogues and randomly drawn compounds.
Here the recorded activation is given for each entry.
Numeric only. Scale: %

Here is how some molecules turned out for activation.
{"molecule": "Cc1ccc(/C=N/NC(=O)c2ccc(O)cc2O)cc1", "measure name": "activation", "experimental result": -2.17}
{"molecule": "CN1CCN(c2cc(-c3cn[nH]c3)ccc2NC(=O)Cc2cccc(Cl)c2)CC1", "measure name": "activation", "experimental result": 11.6}
{"molecule": "CCC1CN(CCNC(=O)c2ccc(C(C)=O)s2)Cc2cc(OC)ccc2O1 (stereo not given)", "measure name": "activation", "experimental result": 2.67}
{"molecule": "Cn1ccnc1C(=O)C1CCCN(C(=O)CCc2nnc(-c3ccccc3)o2)C1 (stereo not given)", "measure name": "activation", "experimental result": 2.54}
{"molecule": "COC(=O)C1=C(N)Oc2c(oc(CO)cc2=O)C1c1c(Cl)cccc1Cl (stereo not given)", "measure name": "activation", "experimental result": 0.48}

Look up activation: CC(C)OCCCNC(=O)CN(c1ccc(OCc2ccccc2)cc1)S(C)(=O)=O
-1.63

Reported activation for CC1CCN(Cc2nnnn2CC(=O)NCC2CCCO2)CC1 (stereo not given) : what is it?
4.51

Requested field: activation. Item: O=C1N[C@H](Cc2ccc(O)cc2)C(=O)N2CCN(Cc3cnn(-c4cccc(Cl)c4)c3)C[C@H]12
3.76

Bench note: what activation did O=C(CSC1=NC(=O)C(c2ccccc2)C(=O)N1)c1ccccc1 (stereo not given) show?
-3.69

Form field: reported activation of COc1ccc(S(=O)(=O)CCC(=O)N2CCc3ccccc32)cc1
1.93
